target: Glutamate NMDA receptor; experiment: Inhibitory concentration against radioligand [3H]CGS-19,755 binding to N-methyl-D-aspartate glutamate receptor in rat forebrain membranes
pIC50: −log10 of the molar value.
Recorded measurements of pIC50, one per entry

Consider the following illustrative entries.
1. N[C@@]1(C(=O)O)CC[C@H]2[C@H](C(=O)O)[C@H]21 (stereo in doubt; (-)-9); < 4.00
2. N[C@H](C(=O)O)[C@H]1C[C@@H]1C(=O)O; < 4.00

Now look at this entry.
Please look up its pIC50: N[C@]1(C(=O)O)CC[C@H]2[C@H](C(=O)O)[C@H]21 (racemic) 4.20

Data credit: ChEMBL document CHEMBL1130337
